src = PubChem BioAssay (NCATS)

I'd appreciate it if you could supply Potency values for the items below.
Test: qHTS for identification of novel therapeutic agents for treatment of microphthalmiaassociated transcription factor (MiT) renal cell carcinoma (RCC) (AID 1963991); note: potency is the fitted concentration of half-maximal effect
Conditions: TFE3-RCC UOK109 viability, CellTiter-Glo, 48 h; active = Z-AUC below -0.8 in all three lines
Records with an inconclusive call do not appear. Activity calls are given as the source filed them.

Q: So what does the record say about Potency for `Cc1cccc(C=NNc2cc(N3CCOCC3)nc(OCCc3ccccn3)n2)c1` ?
Ans: 118 nM (active)

Q: Item under review: `CCc1c2c(nc3ccc(O)cc13)-c1cc3c(c(=O)n1C2)COC(=O)[C@]3(O)CC` . Reported Potency?
Ans: 469 nM (active)

Q: Please report the recorded Potency for `C=C1C(=CC=C2CCC[C@]3(C)[C@@H]([C@H](C)C=C[C@H](C)C(C)C)CC[C@@H]23)C[C@@H](O)C[C@@H]1O` .
Ans: 418 nM (active)

Q: Look at this molecule and give its reported Potency. `CC(C)c1cnn2c(NCc3ccccc3)cc(N[C@@H](CO)[C@H](O)CO)nc12`
Ans: 372 nM (active)

Q: Which Potency is listed for `CC=C1NC(=O)[C@H]2CSSCCC=C[C@H](CC(=O)N[C@H](C(C)C)C(=O)N2)OC(=O)[C@H](C(C)C)NC1=O` ?
Ans: 33.2 nM (active)

Q: Returns the measured Potency for the input molecule. Input: `Cc1ccc(NC(=O)C2(c3ccc4c(c3)OC(F)(F)O4)CC2)nc1-c1cccc(C(=O)O)c1`
Ans: 235 nM (active)
